assayed.system: UniProt:P06493
Sequence (P06493 whole entry, looked up): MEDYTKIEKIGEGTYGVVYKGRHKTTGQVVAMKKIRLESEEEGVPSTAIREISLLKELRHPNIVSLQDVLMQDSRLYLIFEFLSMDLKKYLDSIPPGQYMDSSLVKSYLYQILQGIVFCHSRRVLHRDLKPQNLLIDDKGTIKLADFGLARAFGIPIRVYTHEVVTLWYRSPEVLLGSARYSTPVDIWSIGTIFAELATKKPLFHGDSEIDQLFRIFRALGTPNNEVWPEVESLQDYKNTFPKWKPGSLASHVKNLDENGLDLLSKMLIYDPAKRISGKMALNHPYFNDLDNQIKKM
assay.info: Caliper, Mobility shift assay off-chip
condition.label: compound 0.02 µM
Let's look at some molecules and their measured inhibition.
endpoint.label: inhibition (%)

query_smiles=CNC(=O)c1ccccc1Sc1ccc2c(/C=C/c3ccccn3)n[nH]c2c1 u=% observed_result=-3.5
query_smiles=Cc1ccc(Nc2nccc(N(C)c3ccc4c(C)n(C)nc4c3)n2)cc1S(N)(=O)=O u=% observed_result=-2.9
query_smiles=COc1cc2c(Oc3ccc4[nH]c(C)cc4c3F)ncnc2cc1OCCCN1CCCC1 u=% observed_result=-0.7
query_smiles=CNC(=O)c1cc(Oc2ccc(NC(=O)Nc3ccc(Cl)c(C(F)(F)F)c3)cc2)ccn1 u=% observed_result=-2

The values you see were collected from the kinase profiling compilation of Christmann-Franck et al. (2016).
